The entries below come with measured log10 of ED50 values attached.
# Test system: Rattus norvegicus
# Assay Details: Inhibition of pentagastrin stimulated gastric acid secretion in anesthetized rat on iv administration of the compound.
# Type: functional
# Assay Context: Stomach
Values reflect log10 of reported ED50 (µmol/kg).

>>> value("Cc1cc(F)ccc1Nc1nc(N(C)c2ccccc2)c2ccccc2n1")
0.29
>>> value("Cc1ccccc1Nc1nc(N)nc2ccccc12")
1.68
>>> value("Cc1cc(F)ccc1Nc1nc(N(C)c2ccccc2)c2cc(O)ccc2n1")
0.18
>>> value("COc1cccc2c(Nc3ccccc3C)nc(N)nc12")
0.85
>>> value("CN(c1ccccc1)c1nc(Nc2ccccc2)nc2ccccc12")
0.37
>>> value("CN(c1ccccc1)c1nc(N(C)c2ccccc2)c2ccccc2n1")
0.45

Please find the next compound below.
Briefly, log10 of ED50 measured for COc1cccc2c(N(C)c3ccccc3)nc(Nc3ccccc3C)nc12 : 0.14

---

# Assay Target: Potassium-transporting ATPase (Rattus norvegicus) (UniProt P09626+P18598)
# Assay Details: Inhibition of pentagastrin stimulated gastric acid secretion in anesthetized rat at 10 uM/kg
# Type: functional
# Assay Context: Stomach; 10 umol/kg
Note to self: class = bucket of inhibition, per class 0 = under 30%, class 1 = from 30% up to 40%, class 2 = 40% and over

Please review the entries below; each comes with its answer.
>>> discrete_label("CN(c1ccccc1)c1nc(N)nc2ccccc12")
"class 0"
>>> discrete_label("CNc1nc(Nc2ccccc2C)c2cccc(OC)c2n1")
"class 0"
>>> discrete_label("Cc1ccccc1Nc1nc(N)nc2c(C)cccc12")
"class 2"
>>> discrete_label("Cc1ccccc1Nc1nc(NCCc2ccccc2)nc2ccccc12")
"class 1"
>>> discrete_label("Cc1ccccc1Nc1nc(N(C)c2ccccc2)c2ccccc2n1")
"class 2"
>>> discrete_label("CCN(c1ccccc1)c1nc(Nc2ccccc2C)nc2ccccc12")
"class 2"
>>> discrete_label("COc1cccc2c(Nc3ccccc3C)nc(N3CCCC3)nc12")
"class 1"
>>> discrete_label("COc1cccc2c(Nc3ccccc3C)nc(N(C)c3ccccc3)nc12")
"class 1"

# evaluate next
Q: Textbook exercise: identify the category of the compound given here, Cc1ccccc1Nc1nc(NCCO)nc2ccccc12 , according to its measured value.
A: class 0

---

# Assay Target: Potassium-transporting ATPase (Sus scrofa, UniProt P19156)
# Sequence (P18434 whole entry): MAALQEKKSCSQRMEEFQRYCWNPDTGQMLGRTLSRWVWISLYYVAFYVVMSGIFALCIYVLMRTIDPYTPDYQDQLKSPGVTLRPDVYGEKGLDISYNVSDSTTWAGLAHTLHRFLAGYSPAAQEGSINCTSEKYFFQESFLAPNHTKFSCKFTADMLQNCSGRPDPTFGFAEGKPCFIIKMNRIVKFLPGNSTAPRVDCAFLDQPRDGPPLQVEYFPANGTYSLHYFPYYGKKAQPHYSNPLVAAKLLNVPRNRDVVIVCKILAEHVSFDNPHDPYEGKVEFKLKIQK
# Sequence (P19156 whole entry): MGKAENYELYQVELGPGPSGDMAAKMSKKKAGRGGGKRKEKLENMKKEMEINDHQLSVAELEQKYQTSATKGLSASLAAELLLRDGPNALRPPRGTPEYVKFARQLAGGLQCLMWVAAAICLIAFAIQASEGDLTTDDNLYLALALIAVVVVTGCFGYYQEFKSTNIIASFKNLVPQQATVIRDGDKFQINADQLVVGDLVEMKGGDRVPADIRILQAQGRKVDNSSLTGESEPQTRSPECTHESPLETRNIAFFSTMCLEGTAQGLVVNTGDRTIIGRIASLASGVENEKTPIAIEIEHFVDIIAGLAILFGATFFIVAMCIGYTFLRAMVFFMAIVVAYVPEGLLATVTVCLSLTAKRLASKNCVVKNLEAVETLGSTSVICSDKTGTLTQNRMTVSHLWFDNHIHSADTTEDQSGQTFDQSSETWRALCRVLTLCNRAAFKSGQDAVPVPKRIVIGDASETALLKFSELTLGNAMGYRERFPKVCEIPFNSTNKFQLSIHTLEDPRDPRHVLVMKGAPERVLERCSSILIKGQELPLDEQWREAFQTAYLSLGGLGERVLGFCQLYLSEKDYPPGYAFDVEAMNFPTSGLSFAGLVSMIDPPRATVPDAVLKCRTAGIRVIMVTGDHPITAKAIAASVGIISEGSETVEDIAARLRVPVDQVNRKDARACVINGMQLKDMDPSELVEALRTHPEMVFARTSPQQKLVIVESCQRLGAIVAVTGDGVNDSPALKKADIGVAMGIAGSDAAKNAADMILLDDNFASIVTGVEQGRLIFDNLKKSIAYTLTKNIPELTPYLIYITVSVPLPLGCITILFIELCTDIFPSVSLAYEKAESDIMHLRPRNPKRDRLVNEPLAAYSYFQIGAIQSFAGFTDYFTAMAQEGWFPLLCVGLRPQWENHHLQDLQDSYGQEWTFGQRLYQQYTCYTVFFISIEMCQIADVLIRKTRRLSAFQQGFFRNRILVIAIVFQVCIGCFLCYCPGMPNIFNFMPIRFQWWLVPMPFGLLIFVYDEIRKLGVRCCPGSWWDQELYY
# Assay Details: Inhibition of K+ stimulated gastric ATPase activity
// reported pIC50 for each item listed
To interpret pIC50, take it as minus log10 of a concentration measured in moles per litre.

>>> value("CN(c1ccccc1)c1nc(N)nc2ccccc12")
5.48
>>> value("Cc1cc(F)ccc1Nc1nc(N(C)c2ccccc2)c2cc(OCCCN3CCOCC3)ccc2n1")
6.43
>>> value("Cc1cc(F)ccc1Nc1nc(N(C)c2ccccc2)c2cc(OCCN(C)C)ccc2n1")
5.89
>>> value("COc1cccc2c(Nc3ccccc3C)nc(N)nc12")
7.10
>>> value("CCN(c1ccccc1)c1nc(Nc2ccccc2C)nc2ccccc12")
6.49
>>> value("Cc1ccccc1Nc1nc(N)nc2ccccc12")
5.88

Record summary for COc1ccc2nc(Nc3ccccc3C)nc(N(C)c3ccccc3)c2c1 : reported pIC50 = 6.29

Measured pIC50 of Cc1ccccc1Nc1nc(N(C)c2ccccc2)c2ccsc2n1 : 6.29

Entry under test: CCOC(=O)COc1cccc2c(N(C)c3ccccc3)nc(Nc3ccc(F)cc3C)nc12 . Its pIC50 was 6.89

Entry under test: Cc1ccccc1Nc1nc(N)nc2c(C)cccc12 . Its pIC50 was 6.62

The reported pIC50 of the molecule COc1cccc2c(N(C)c3ccccc3C)nc(Nc3ccc(F)cc3C)nc12 was 7.02

Reported pIC50 of Cc1ccccc1Nc1nc(N(C)c2ccccc2)c2cccc(O)c2n1 : 6.59

Where do these numbers come from? They come from ChEMBL document CHEMBL1128472.
